# assayed_system: full-length beta-Catenin (Uniprot ID P35222) (Homo sapiens)
# Construct: 10 nM full-length beta-Catenin (Uniprot ID P35222)
# Sequence (P35222 1-781): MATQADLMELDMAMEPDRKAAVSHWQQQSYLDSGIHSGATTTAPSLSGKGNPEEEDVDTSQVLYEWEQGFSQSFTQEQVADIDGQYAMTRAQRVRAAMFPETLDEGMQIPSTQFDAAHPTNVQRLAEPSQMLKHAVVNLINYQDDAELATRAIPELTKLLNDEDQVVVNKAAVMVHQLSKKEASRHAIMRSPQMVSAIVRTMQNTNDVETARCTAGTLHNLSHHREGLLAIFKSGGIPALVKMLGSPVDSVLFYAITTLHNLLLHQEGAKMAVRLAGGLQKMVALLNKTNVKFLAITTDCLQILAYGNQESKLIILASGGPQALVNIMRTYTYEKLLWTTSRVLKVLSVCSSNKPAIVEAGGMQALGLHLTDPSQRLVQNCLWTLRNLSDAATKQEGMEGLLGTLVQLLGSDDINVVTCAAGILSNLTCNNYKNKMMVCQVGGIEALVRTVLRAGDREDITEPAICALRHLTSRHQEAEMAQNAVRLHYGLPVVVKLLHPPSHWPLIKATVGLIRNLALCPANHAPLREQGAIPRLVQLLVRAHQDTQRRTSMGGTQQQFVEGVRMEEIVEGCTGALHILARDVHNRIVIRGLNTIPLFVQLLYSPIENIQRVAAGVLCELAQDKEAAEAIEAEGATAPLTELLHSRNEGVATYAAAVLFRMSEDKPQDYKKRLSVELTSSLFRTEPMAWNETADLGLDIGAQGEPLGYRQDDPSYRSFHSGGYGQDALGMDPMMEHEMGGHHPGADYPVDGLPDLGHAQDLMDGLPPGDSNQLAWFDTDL
# assay_details: Fluorescence polarization IC50 (beta-catenin / 5FAM-TCF4 10-53 competition)
# Assay type: binding
# measurement_setup: fluorescence polarization, beta-catenin; read-out: FP EC50
property_measured: pIC50
Numbers only, as −log10 of the molar value.

• CC(=O)N1CCC[C@]12CC=CCCCC1(CCCC=CCCCCCC[C@@](C)(C(=O)N[C@@H](Cc3ccccc3)C(=O)N[C@@H](Cc3c[nH]c4ccccc34)C(=O)N[C@@H](CCC(N)=O)C(N)=O)NC(=O)[C@H](C(C)C)NC(=O)[C@H](Cc3ccc(Cl)cc3)NC(=O)[C@H](C)NC(=O)[C@H](C)NC(=O)[C@H](CC(=O)O)NC(=O)[C@H](CC(=O)O)NC1=O)NC(=O)[C@H](C)NC(=O)[C@H](CC(=O)O)NC2=O (stereo partly shown) [I-309] = 5.51

Provide the reported pIC50 of each entry below, same order.
1. CC(=O)N1CCC[C@]12CC=CCCCC1(CCCC=CCCCCCC[C@@](C)(C(=O)N[C@@H](Cc3ccccc3)C(=O)N[C@@H](Cc3c[nH]c4ccccc34)C(=O)N[C@@H](CCC(N)=O)C(N)=O)NC(=O)[C@H](C(C)C)NC(=O)[C@H](Cc3cc(F)cc(F)c3)NC(=O)[C@H](C)NC(=O)[C@H](C)NC(=O)[C@H](CCC(=O)O)NC(=O)[C@H](CC(=O)O)NC1=O)NC(=O)[C@H](C)NC(=O)[C@H](CC(=O)O)NC2=O (stereo partly shown) [I-219]
2. CC[C@H](C)[C@@H]1NC(=O)[C@H](CC(=O)O)NC(=O)[C@]2(CC=CCCCC3(CCCC=CCCCCCC[C@@](C)(C(=O)N[C@@H](Cc4ccccc4)C(=O)N[C@@H](Cc4c[nH]c5ccccc45)C(=O)N[C@@H](Cc4c[nH]cn4)C(N)=O)NC(=O)[C@H](CCC(N)=O)NC(=O)[C@H](Cc4ccccc4)NC(=O)[C@H](C)NC(=O)[C@H](C)NC(=O)[C@H](CC(=O)O)NC(=O)[C@H](CC(=O)O)NC3=O)NC1=O)CCCN2C(C)=O (stereo partly shown) [I-174]
3. CC(=O)N1CCC[C@]12CC=CCCCC1(CCCC=CCCCCCC[C@@](C)(C(=O)N[C@@H](Cc3ccccc3)C(=O)N[C@@H](Cc3csc4ccccc34)C(=O)N[C@@H](CCC(N)=O)C(N)=O)NC(=O)[C@H](CCC(N)=O)NC(=O)[C@H](Cc3cccc(C(F)(F)F)c3)NC(=O)[C@H](C)NC(=O)[C@H](C)NC(=O)[C@H](CC(=O)O)NC(=O)[C@H](CC(=O)O)NC1=O)NC(=O)[C@H](C)NC(=O)[C@H](CC(=O)O)NC2=O (stereo partly shown) [I-378]

Result:
5.54
5.75
5.87
